EXPERIMENT NOTES: Agonist activity at Protein kinase C in human MT4 cells infected with HIV-1 NL4-3 assessed as inhibition of viral replication measured on day 3 post-infection by Nano-Glo luciferase assay
Here, each record is paired with measured IC50 data.

C=C(C)[C@]12C[C@@H](COC(=O)c3ccccc3)[C@@]34OC5(O[C@@H]1[C@@H]3[C@@H]1O[C@]1(COC(=O)[C@@]13CC[C@@](C)(C(=O)O1)C3(C)C)[C@@H](O)[C@@]1(O)[C@H]4[C@H]([C@H](C)[C@@H]1OC(=O)c1ccccc1)[C@H](C)CCCCCC[C@H]5O)O2: > 1 nM
C=C(C)[C@]12C[C@@H](COC(=O)c3ccccc3)[C@@]34OC5(O[C@@H]1[C@@H]3[C@@H]1O[C@]1(CO)[C@@H](O)[C@@]1(O)[C@H]4[C@H]([C@H](C)[C@@H]1OC(=O)c1ccc(OC)cc1)[C@H](C)CCCCCC[C@H]5O)O2: 0.17 nM
C=C(C)[C@]12C[C@@H](COC(=O)c3ccccc3)[C@@]34OC5(O[C@@H]1[C@@H]3[C@@H]1O[C@]1(CO)C(=O)[C@@]1(O)[C@H]4[C@H]([C@H](C)[C@@H]1OC(=O)c1ccccc1)[C@H](C)CCCCCC[C@H]5O)O2: > 1 nM

Alright, here's another molecule for you.
Problem: Could you tell me which IC50 is on file for C=C(C)[C@]12C[C@@H](COC(=O)c3ccccc3)[C@@]34OC5(O[C@@H]1[C@@H]3[C@@H]1O[C@]1(CO)[C@@H](OC(C)=O)[C@@]1(O)[C@H]4[C@H]([C@H](C)[C@@H]1OC(=O)c1ccccc1)[C@H](C)CCCCCC[C@H]5O)O2 ?
Result: > 1 nM
